system: Cheytin 3
experiment notes: ITC
pKd: −log10 of the molar value.
value kind: pKd

binder	value kind	recorded number
P2 domain of the histidine kinase CheA (domain or fragment, biotin (in vivo biotinylation, AviTag)) GFKTFYIKVILKEGTQLKSARIYLVFHKLEELKCEVVRTIPSVEEIEEEKFENEVELFVISPVDLEKLSEALSSIADIERVIIKEV	pKd	6.18

Where these numbers come from: paper PMC9873692
